Target: wildtype Kras / hSOS1 (Homo sapiens, UniProt P01116)
Construct: made in house; host or cells: E. coli BL21 (DE3)
Sequence (P01116 1-188 isoform P01116-2): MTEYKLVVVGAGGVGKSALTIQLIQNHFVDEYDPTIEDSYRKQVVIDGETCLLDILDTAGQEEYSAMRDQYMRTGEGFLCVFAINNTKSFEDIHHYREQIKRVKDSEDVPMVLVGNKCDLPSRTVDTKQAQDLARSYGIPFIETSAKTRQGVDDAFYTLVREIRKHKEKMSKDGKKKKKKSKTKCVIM
Experiment: HTRF assay, wildtype Kras / SOS1 interaction
Format: binding
Conditions: compound nos. 401-703; read-out: IC50 against wildtype Kras
pIC50: −log10 of the molar value.
Hi there, I'd appreciate the recorded pIC50 for every entry that follows.

For orientation, consider the following solved cases.
Nc1nc2c(-c3ccc4c(N5CC6CCC(C5)N6)nc(OCC56CCCN5CCC6)nc4n3)ccc(F)c2s1    > 6.30
Nc1nc2c(-c3c(Cl)cc4c(N5CC6CNCC6C5)nc(OC[C@@]56CCCN5C[C@H](F)C6)nc4c3F)ccc(F)c2s1 (stereo partly shown)    < 6.30
COc1nc2c(N3CC4CCC(C3)N4)nc(OC[C@@]34CCCN3C[C@H](F)C4)nc2cc1-c1cc(O)cc2ccccc12    < 6.30
CN1CCC[C@H]1COc1nc(N2CCCC(F)C(F)(F)C2)c2cc(Cl)c(-c3cccc4sc(N)nc34)c(F)c2n1 (stereo partly shown)    > 6.30
CN(C)CC1(COc2nc(N3CC4CCC(C3)N4)c3ccc(-c4ccc(F)c5sc(N)nc45)c(F)c3n2)CC1    > 6.30

Respectfully, I request pIC50 for each entry included below.
1. CN1CCC[C@H]1COc1nc(N2CCCS(=O)(=O)CC2)c2cc(Cl)c(-c3cccc4sc(N)nc34)c(F)c2n1
2. Nc1nc2c(-c3c(Cl)cc4c(N5CC6CCCC5CN6)nc(OC[C@@]56CCCN5C[C@H](F)C6)nc4c3F)ccc(F)c2s1 (stereo partly shown)

Result:
> 6.30
< 6.30

---

Target: wildtype Kras / hSOS1 (Homo sapiens, UniProt P01116)
Construct: made in house; host or cells: E. coli BL21 (DE3)
Assay: HTRF assay, wildtype Kras / SOS1 interaction
Type: binding
Conditions: compound nos. 401-703; read-out: IC50 against wildtype Kras
Experimental Readout: IC50

As a guide, the following entries are already answered.
CN1CCC[C@H]1COc1nc2c(c(N3CCNCC(F)(F)C3)n1)CCN(c1cc(O)cc3ccccc13)C2    < 0.5 µM
CO[C@@H]1CN(C)C[C@H]1Oc1nc(N2CC3CCC(C2)N3)c2cc(Cl)c(-c3ccc(F)c4sc(N)nc34)c(F)c2n1    < 0.5 µM
Nc1nc2c(-c3c(Cl)cc4c(N5CCCN(S(=O)(=O)C6CC6)CC5)nc(OC[C@@]56CCCN5C[C@H](F)C6)nc4c3F)ccc(F)c2s1    < 0.5 µM
N#Cc1c(N)sc2c(F)ccc(-c3c(Cl)cc4c(N5CCCC6(CNC6)C5)nc(OC[C@@]56CCCN5C[C@H](F)C6)nc4c3F)c12    > 0.5 µM
Nc1nc2c(-c3c(Cl)cc4c(N5CC6CCC(C5)N6)nc(OC[C@@]56CCCN5C[C@H](F)C6)nc4c3F)cccc2o1    > 0.5 µM

Now for the molecule whose IC50 we want.
GET /value?item= CN1[C@@H]2CC[C@H]1CN(c1nc(OC[C@@]34CCCN3C[C@H](F)C4)nc3c(F)c(-c4ccc(F)c5sc(N)nc45)c(Cl)cc13)C2 &field=IC50 returns < 0.5 µM

---

Target: GST-tagged K-Ras mutant / His-tagged hSOS1 (Homo sapiens, UniProt P01116)
Sequence (P01116 whole entry G12D, form open): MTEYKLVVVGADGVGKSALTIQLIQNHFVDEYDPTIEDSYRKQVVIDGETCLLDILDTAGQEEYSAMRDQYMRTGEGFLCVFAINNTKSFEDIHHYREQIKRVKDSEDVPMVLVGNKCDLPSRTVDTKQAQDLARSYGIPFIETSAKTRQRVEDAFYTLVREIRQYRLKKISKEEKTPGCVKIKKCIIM
Assay: HTRF assay, K-Ras mutant / SOS1 interaction
Format: binding
Settings: compound nos. 401-703; read-out: IC50 against mutant Kras
Would you mind telling me the reported IC50 of each entry?

# annotated cases, reported IC50 shown
Cc1ccnc(C(C)C)c1-n1c(=O)nc(N2CC3CCC(C2)N3)c2cc(F)c(-c3c(O)cccc3F)nc21 [Compound 687]    > 500 nM
Nc1nc2c(-c3c(Cl)cc4c(N5CCC6CCC(C5)N6)nc(OCC56CCCN5CCC6)nc4c3F)ccc(F)c2s1 (centres unmarked) [Compound 494]    < 500 nM
Nc1nc2c(-c3c(Cl)cc4c(N5CC6CCC(C5)NC6)nc(OC[C@@]56CCCN5C[C@H](F)C6)nc4c3F)ccc(F)c2s1 (some centres unmarked) [Compound 511]    < 500 nM

Record IC50 per entry; entries follow.
1. Nc1nc2c(-c3c(Cl)cc4c(N5CCC6CCC(C5)N6)nc(OC[C@@]56CCCN5C[C@H](F)C6)nc4c3F)ccc(F)c2s1 (some centres unmarked) [Compound 684]
2. CN1CCC[C@H]1COc1nc(N2CCCC(NC3CNC3)CC2)c2cc(Cl)c(-c3cccc4sc(N)nc34)c(F)c2n1 (some centres unmarked) [Compound 554]

Result:
1. < 500 nM
2. > 500 nM

---

Target: GST-tagged K-Ras mutant / His-tagged hSOS1 (Homo sapiens)
Assay: HTRF assay, K-Ras mutant / SOS1 interaction
Format: binding
Conditions: compound nos. 102-196, general methodology of example 5; read-out: IC50 against mutant Kras
Give IC50 for every item shown.

Answered examples (5):
CN1CCC[C@H]1COc1nc(N2CCN(S(C)(=O)=O)CC(F)(F)C2)c2cc(Cl)c(-c3cccc4sc(N)nc34)c(F)c2n1    > 0.5 µM
Nc1nc2c(-c3c(Cl)cc4c(N5CCNCC(F)(F)C5)nc(OC[C@@]56CCCN5C[C@H](F)C6)nc4c3F)ccc(F)c2s1    < 0.5 µM
Cc1nc2c(-c3c(Cl)cc4c(N5CCNCC(F)(F)C5)nc(OC[C@@H]5CCCN5C)nc4c3F)cccc2s1    > 0.5 µM
CN1CCC[C@H]1COc1nc(N2CCCOCC2)c2cc(Cl)c(-c3ccc(F)c4sc(N)nc34)c(F)c2n1    < 0.5 µM
CN1CCC[C@H]1COc1nc(N2CCN(S(N)(=O)=O)CC(F)(F)C2)c2cc(Cl)c(-c3cccc4sc(N)nc34)c(F)c2n1    > 0.5 µM

I have 4 compounds here; please give me IC50 for each one.
1. Nc1nc2c(-c3c(Cl)cc4c(N5CCNCC(F)(F)C5)nc(OCC56CCCN5C(=O)CC6)nc4c3F)cccc2s1 (stereo not drawn)
2. CN1CCC[C@H]1COc1nc(N2CCNCC(F)(F)C2)c2cc(Cl)c(-c3cccc4scnc34)c(F)c2n1
3. CN1CCC[C@H]1COc1nc(N2CCC3CNCC3C2)c2cc(Cl)c(-c3cccc4sc(N)nc34)c(F)c2n1 (stereo partly drawn)
4. CN1CCC[C@H]1COc1nc(N2CCNCC(F)(F)C2)c2cc(Cl)c(-c3cccc4nc(N)oc34)c(F)c2n1

Result:
> 0.5 µM
> 0.5 µM
> 0.5 µM
> 0.5 µM

---

Target: wildtype Kras / hSOS1 (Homo sapiens)
Construct: made in house; host or cells: E. coli BL21 (DE3)
Experiment: HTRF assay, wildtype Kras / SOS1 interaction
Format: binding
Conditions: compound nos. 401-703; read-out: IC50 against wildtype Kras
pIC50: −log10 of the molar value.
Assignment: determine reported pIC50 for the given compounds.

Known results for compounds:
Nc1nc2c(-c3c(Cl)cc4c(N5CCCNCC5)nc(OC[C@@]56CCCN5C[C@H](F)C6)nc4c3F)ccc(F)c2s1    < 6.30
Nc1nc2c(-c3c(Cl)cc4c(N5CCCCC56CNC6)nc(OC[C@@]56CCCN5C[C@H](F)C6)nc4c3F)ccc(F)c2s1    < 6.30
CN1CCC[C@H]1COc1nc(N2CCC(F)C(F)CC2)c2cc(Cl)c(-c3cccc4sc(N)nc34)c(F)c2n1 (some centres unmarked)    < 6.30
CN(C)CC1(COc2nc(N3CC4CCC(C3)N4)c3ccc(-c4cccc5cccc(Cl)c45)c(F)c3n2)CC1    > 6.30
Nc1nc2c(-c3c(Cl)cc4c(N5CC6CNCC(C5)N6)nc(OC[C@@]56CCCN5C[C@H](F)C6)nc4c3F)ccc(F)c2s1    < 6.30

Provide the reported pIC50 of each entry below, same order.
1. Nc1nccc2c(-c3c(Cl)cc4c(N5CC6CCC(C5)N6)nc(OCC56CCCN5CCC6)nc4c3F)cccc12
2. Nc1nc2c(-c3c(Cl)cc4c(N5CCC6CNCC6C5)nc(OC[C@@]56CCCN5C[C@H](F)C6)nc4c3F)ccc(F)c2s1 (some centres unmarked)
3. N#Cc1c(N)sc2c(F)ccc(-c3c(Cl)cc4c(N5CC6CCC(C5)N6CC5CC5)nc(OC[C@@]56CCCN5C[C@H](F)C6)nc4c3F)c12
4. Nc1cccc(-c2ccc(O)cc2-c2c(Cl)cc3c(N4CC5CCC(C4)N5)nc(OCC45CCCN4CCC5)nc3c2F)c1
5. Nc1cc(-c2c(Cl)cc3c(N4CCCCCC4)nc(OCC45CCCN4CCC5)nc3c2F)ccc1F

Result:
1: < 6.30; 2: < 6.30; 3: > 6.30; 4: < 6.30; 5: < 6.30
